- ASSAYED TARGET: Melanocortin receptor 4 (Homo sapiens) (UniProt P32245)
- Sequence (P32245 whole entry, looked up): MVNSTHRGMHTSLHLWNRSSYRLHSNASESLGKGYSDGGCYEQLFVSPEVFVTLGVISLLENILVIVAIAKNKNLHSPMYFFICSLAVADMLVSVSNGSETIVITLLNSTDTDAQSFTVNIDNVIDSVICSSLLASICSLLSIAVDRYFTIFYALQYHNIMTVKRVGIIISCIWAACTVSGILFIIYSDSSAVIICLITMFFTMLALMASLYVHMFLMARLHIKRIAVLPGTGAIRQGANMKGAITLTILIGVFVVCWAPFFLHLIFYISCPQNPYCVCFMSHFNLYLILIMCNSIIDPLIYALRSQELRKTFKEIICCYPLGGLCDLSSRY
- TEST DETAILS: MC4R antagonists of Melanotan II cAMP, late-stage follow-up, cell-based, FRET, biased ligands (AID 651554)
- PARTICULARS: U2OS MC4R, Melanotan II cAMP TR-FRET antagonist; run 1
Activity calls are given as the source filed them.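 The calls were made as follows: active = either panel giving IC50 at or below 10 µM; inactive = both panels giving IC50 over 10 µM.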
Your reply should match one of these outcome classes. active, inactive

-- ask GET /call?item= CC1CCCCN1S(=O)(=O)c1ccc(NC(=O)c2nc(S(C)(=O)=O)ncc2Cl)cc1 (configuration not stated) returns the recorded outcome of this test.
-- reply inactive

-- ask Tell me the assay call for CCC1CCCCN1S(=O)(=O)c1ccc(NC(=O)c2cccc(S(C)(=O)=O)c2)cc1 (configuration not stated) please.
-- reply inactive

-- ask State the result this test recorded for CNC(=O)c1cc(Oc2ccc(NCC(=O)Nc3ccc(Cl)c(C(F)(F)F)c3)cc2)ccn1 .
-- reply inactive

-- ask I'd appreciate the recorded outcome for COc1ccccc1C1(CCNC(C)c2cccs2)CCOC(C(C)C)C1 (configuration not stated) from this test.
-- reply active

-- ask I would be grateful if you could indicate the recorded call for Cc1ccccc1CN1Cc2cnnn2-c2ccccc2C1C#N (configuration not stated) .
-- reply inactive

-- ask I would be grateful if you could indicate the recorded call for C#CC(=O)N(c1ccc(OC)c(OC)c1)C(C(=O)NC1CCCC1)c1cccs1 (configuration not stated) .
-- reply inactive

-- ask Any idea what this test logged for COc1ccc(N(C(C)=O)C(C(=O)NC2CCCC2)c2cccs2)cc1OC (configuration not stated) ?
-- reply inactive

-- ask Hi, sorry to bother you, what did the test record for CCC1CCCCN1S(=O)(=O)c1ccc(NC(=O)c2ccccc2)cc1 (configuration not stated) ?
-- reply inactive

-- ask Tell me the assay call for CC(=O)c1ccc(Nc2nc3ccc(C(=O)N(CCC(C)C)CCC(C)C)cc3n2CCCN2CCCCC2)cc1 please.
-- reply active

-- ask What classification did CNC(=O)c1cc(Oc2ccc(NC(=O)CNc3ccc(Cl)c(C(F)(F)F)c3)cc2)ccn1 end up with in this test?
-- reply inactive

-- ask Dear colleague, could you share the recorded outcome for CNC(=O)c1cc(Oc2ccc(NC(=O)Nc3ccc(Cl)c(C(F)(F)F)c3)cc2)ccn1 when you have a moment?
-- reply inactive

-- ask How was CCC1CCCCN1S(=O)(=O)c1ccc(NC(=O)c2ccnc(SC)n2)cc1 (configuration not stated) classified in this test?
-- reply inactive
